target: Human HDAC1 (Homo sapiens); construct: full length with C-terminal His-tag and C-terminal FLAG-tag; His (C); FLAG (C); host or cells: baculovirus expression system; assay: HDAC1 biochemical assay, AMC-labeled peptide substrate; settings: read-out: HDAC Isoform IC50 (nM) 1
Sequence (Q13547 whole entry, canonical isoform): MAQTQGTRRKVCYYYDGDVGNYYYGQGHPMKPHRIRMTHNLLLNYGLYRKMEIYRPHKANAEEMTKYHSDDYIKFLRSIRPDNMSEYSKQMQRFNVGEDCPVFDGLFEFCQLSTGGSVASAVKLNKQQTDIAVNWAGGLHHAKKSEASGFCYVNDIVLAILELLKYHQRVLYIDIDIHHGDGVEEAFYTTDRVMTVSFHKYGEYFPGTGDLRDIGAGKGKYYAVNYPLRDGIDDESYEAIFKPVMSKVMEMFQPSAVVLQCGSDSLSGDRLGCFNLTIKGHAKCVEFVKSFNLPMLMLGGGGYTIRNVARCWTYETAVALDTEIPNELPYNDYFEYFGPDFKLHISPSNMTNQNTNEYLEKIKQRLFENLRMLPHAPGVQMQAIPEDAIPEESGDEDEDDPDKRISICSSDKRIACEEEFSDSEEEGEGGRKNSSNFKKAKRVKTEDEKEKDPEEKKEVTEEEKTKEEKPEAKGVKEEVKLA
attributeMeasured: IC50

{"molecule": "FC(F)(F)c1nc(-c2ccc(CN(c3cnccn3)c3ccc(-c4ccccc4)nn3)s2)no1 [Example DN]", "systemUnderTest": "Human HDAC1 (Homo sapiens)", "reportedResult": "≤ 10000 nM"}
{"molecule": "Cc1cnnc(N(Cc2ccc(-c3noc(C(F)(F)F)n3)s2)c2cnccn2)c1 [Example GN]", "systemUnderTest": "Human HDAC1 (Homo sapiens)", "reportedResult": "> 10000 nM"}
{"molecule": "CN(C)C(=O)c1cncc(N(Cc2ccc(-c3noc(C(F)(F)F)n3)s2)c2cnccn2)n1 [Example BS]", "systemUnderTest": "Human HDAC1 (Homo sapiens)", "reportedResult": "> 10000 nM"}
{"molecule": "FC(F)(F)c1nc(-c2ccc(CN(c3cnccn3)c3ccc4nccnc4n3)s2)no1 [Example Z]", "systemUnderTest": "Human HDAC1 (Homo sapiens)", "reportedResult": "> 10000 nM"}
{"molecule": "FC(F)(F)c1nc(-c2ccc(CN(c3cnccn3)c3ccnc4ccnn34)s2)no1 [Example CF]", "systemUnderTest": "Human HDAC1 (Homo sapiens)", "reportedResult": "> 10000 nM"}

Quote IC50 with test system Human HDAC1 (Homo sapiens) for FC(F)(F)c1nc(-c2ccc(CN(c3cnccn3)c3cscn3)s2)no1 [Example T]
≤ 10000 nM

Quote IC50 with test system Human HDAC1 (Homo sapiens) for OC1(c2cnnc(N(Cc3ccc(-c4noc(C(F)(F)F)n4)s3)c3cnccn3)c2)COC1 [Example GW]
> 10000 nM

Quote IC50 with test system Human HDAC1 (Homo sapiens) for COc1ncc(N(Cc2ccc(-c3noc(C(F)(F)F)n3)s2)c2cnccn2)cn1 [Example CT]
> 10000 nM

----------
Molecular target: Human HDAC7 (Homo sapiens, UniProt Q8WUI4)
Construct: (a.a. 518-end) with N-terminal GST tag; GST (N); host or cells: baculovirus expression system
Sequence (Q8WUI4 518-952 limits assumed): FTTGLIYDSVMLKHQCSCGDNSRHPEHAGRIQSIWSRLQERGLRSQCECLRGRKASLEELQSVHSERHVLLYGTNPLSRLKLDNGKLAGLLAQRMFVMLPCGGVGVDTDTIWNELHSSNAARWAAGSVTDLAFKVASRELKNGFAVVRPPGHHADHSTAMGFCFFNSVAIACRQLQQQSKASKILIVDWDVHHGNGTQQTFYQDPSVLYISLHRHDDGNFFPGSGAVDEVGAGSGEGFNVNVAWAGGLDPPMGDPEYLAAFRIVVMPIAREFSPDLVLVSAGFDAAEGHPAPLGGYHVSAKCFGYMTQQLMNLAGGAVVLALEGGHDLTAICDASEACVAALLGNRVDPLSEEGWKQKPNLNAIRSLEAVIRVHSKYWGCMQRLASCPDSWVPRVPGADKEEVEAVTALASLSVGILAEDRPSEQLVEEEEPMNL
Assay: HDAC7 biochemical assay, class IIa-specific substrate
Settings: read-out: HDAC Isoform IC50 (nM) 7
Experimental: Activity against all zinc-dependent HDACs 1 to 11 was assessed by using an acetylated AMC-labeled peptide substrate. The substrate RHKK(Ac)AMC was used for HDAC1, HDAC2, HDAC3, HDAC6 and HDAC10; the substrate used for HDAC8 was RHK(Ac)K(Ac)AMC. Activity against the class IIa HDACs (HDAC4, 5, 7, 9) and HDAC11 was determined using a class IIa-specific substrate, BOC-Lys(trifluoroacetyl)-AMC (“Trifluoroacetyl Lysine”; see Lahm et al, 2007, PNAS, 104, 17335-17340). […]
attributeMeasured: IC50

Study these solved cases before continuing.
{"compound": "Cc1cncc(N(Cc2ccc(-c3noc(C(F)(F)F)n3)s2)c2cnccn2)n1 [Example BP]", "systemUnderTest": "Human HDAC7 (Homo sapiens, UniProt Q8WUI4)", "IC50": "≤ 10000 nM"}
{"compound": "FC(F)(F)c1nc(-c2ccc(CN(c3cnc(C4CC4)nc3)c3cnccn3)s2)no1 [Example CU]", "systemUnderTest": "Human HDAC7 (Homo sapiens, UniProt Q8WUI4)", "IC50": "≤ 1000 nM"}
{"compound": "FC(F)(F)c1nc(-c2ccc(CN(c3cnccn3)c3ccc(CN4CCOCC4)nn3)s2)no1 [Example FN]", "systemUnderTest": "Human HDAC7 (Homo sapiens, UniProt Q8WUI4)", "IC50": "≤ 1000 nM"}
{"compound": "Cc1cnnc(N(Cc2ccc(-c3noc(C(F)(F)F)n3)s2)c2cnccn2)c1 [Example GN]", "systemUnderTest": "Human HDAC7 (Homo sapiens, UniProt Q8WUI4)", "IC50": "≤ 1000 nM"}
{"compound": "FC(F)(F)c1nc(-c2ccc(CN(c3cnccn3)c3cc(C4CC4)ccn3)s2)no1 [Example AH]", "systemUnderTest": "Human HDAC7 (Homo sapiens, UniProt Q8WUI4)", "IC50": "> 10000 nM"}

Answer with the recorded IC50 for the compound listed here: OC1(c2cnnc(N(Cc3ccc(-c4noc(C(F)(F)F)n4)s3)c3cnccn3)c2)COC1 [Example GW]
≤ 1000 nM

Answer with the recorded IC50 for the compound listed here: FC(F)(F)c1nc(-c2ccc(CN(c3cnccn3)c3ncccn3)s2)no1 [Example AS]
≤ 10000 nM

Answer with the recorded IC50 for the compound listed here: COc1cnnc(N(Cc2ccc(-c3noc(C(F)(F)F)n3)s2)c2cnccn2)c1 [Example DV]
≤ 10000 nM

----------
target: Human HDAC4 (Homo sapiens, UniProt P56524); construct: amino acids 627-1085 with N-terminal GST tag; GST (N); host or cells: baculovirus expression system; experiment: HDAC4 biochemical assay, class IIa-specific substrate; details: read-out: HDAC Isoform IC50 (nM) 4
Sequence (P56524 627-1084 limits assumed): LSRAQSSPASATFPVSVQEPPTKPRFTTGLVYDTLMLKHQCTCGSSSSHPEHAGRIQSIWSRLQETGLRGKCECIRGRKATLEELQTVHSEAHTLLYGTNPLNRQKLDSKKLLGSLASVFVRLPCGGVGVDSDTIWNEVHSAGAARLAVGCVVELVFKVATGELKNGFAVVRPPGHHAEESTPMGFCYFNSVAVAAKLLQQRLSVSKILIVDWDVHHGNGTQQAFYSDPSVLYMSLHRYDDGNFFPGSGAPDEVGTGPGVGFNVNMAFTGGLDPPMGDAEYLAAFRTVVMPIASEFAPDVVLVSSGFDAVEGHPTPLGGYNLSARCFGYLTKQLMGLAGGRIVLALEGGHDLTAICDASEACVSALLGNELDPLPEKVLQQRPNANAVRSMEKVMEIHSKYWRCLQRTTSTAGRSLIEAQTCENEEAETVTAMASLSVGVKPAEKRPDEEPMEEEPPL
attributeMeasured: IC50

Study these solved cases before continuing.
{"compound": "COC1CN(C(=O)c2cnnc(N(Cc3ccc(-c4noc(C(F)(F)F)n4)s3)c3cnccn3)c2)C1 [Example DZ]", "reportedResult": "≤ 10000 nM"}
{"compound": "FC(F)(F)c1ccc(N(Cc2ccc(-c3noc(C(F)(F)F)n3)s2)c2cnccn2)nn1 [Example DH]", "reportedResult": "≤ 1000 nM"}

Answer with the recorded IC50 for the compound listed here: Cn1cc(-c2ccc(N(Cc3ccc(-c4noc(C(F)(F)F)n4)s3)c3cnccn3)nn2)cn1 [Example DO]
≤ 1000 nM

Answer with the recorded IC50 for the compound listed here: FC(F)(F)c1nc(-c2ccc(CN(c3cnccn3)c3cc(N4CCCC4)cnn3)s2)no1 [Example FQ]
≤ 10000 nM

Answer with the recorded IC50 for the compound listed here: O=C(c1cnnc(N(Cc2ccc(-c3noc(C(F)(F)F)n3)s2)c2cnccn2)c1)N1CCOCC1 [Example EB]
≤ 10000 nM

Answer with the recorded IC50 for the compound listed here: FC(F)(F)c1nc(-c2ccc(CN(c3cnccn3)c3cc(N4CCOCC4)cnn3)s2)no1 [Example FP]
≤ 1000 nM

Answer with the recorded IC50 for the compound listed here: FC(F)(F)c1nc(-c2ccc(CN(c3cnccn3)c3ccc4nccnc4n3)s2)no1 [Example Z]
≤ 1000 nM

----------
Molecular target: Recombinant human HDAC6 (Homo sapiens)
Construct: full length, MW=159 kDa; GST (N); host or cells: Sf9 insect cells (baculovirus)
Sequence (Q9UBN7 whole entry): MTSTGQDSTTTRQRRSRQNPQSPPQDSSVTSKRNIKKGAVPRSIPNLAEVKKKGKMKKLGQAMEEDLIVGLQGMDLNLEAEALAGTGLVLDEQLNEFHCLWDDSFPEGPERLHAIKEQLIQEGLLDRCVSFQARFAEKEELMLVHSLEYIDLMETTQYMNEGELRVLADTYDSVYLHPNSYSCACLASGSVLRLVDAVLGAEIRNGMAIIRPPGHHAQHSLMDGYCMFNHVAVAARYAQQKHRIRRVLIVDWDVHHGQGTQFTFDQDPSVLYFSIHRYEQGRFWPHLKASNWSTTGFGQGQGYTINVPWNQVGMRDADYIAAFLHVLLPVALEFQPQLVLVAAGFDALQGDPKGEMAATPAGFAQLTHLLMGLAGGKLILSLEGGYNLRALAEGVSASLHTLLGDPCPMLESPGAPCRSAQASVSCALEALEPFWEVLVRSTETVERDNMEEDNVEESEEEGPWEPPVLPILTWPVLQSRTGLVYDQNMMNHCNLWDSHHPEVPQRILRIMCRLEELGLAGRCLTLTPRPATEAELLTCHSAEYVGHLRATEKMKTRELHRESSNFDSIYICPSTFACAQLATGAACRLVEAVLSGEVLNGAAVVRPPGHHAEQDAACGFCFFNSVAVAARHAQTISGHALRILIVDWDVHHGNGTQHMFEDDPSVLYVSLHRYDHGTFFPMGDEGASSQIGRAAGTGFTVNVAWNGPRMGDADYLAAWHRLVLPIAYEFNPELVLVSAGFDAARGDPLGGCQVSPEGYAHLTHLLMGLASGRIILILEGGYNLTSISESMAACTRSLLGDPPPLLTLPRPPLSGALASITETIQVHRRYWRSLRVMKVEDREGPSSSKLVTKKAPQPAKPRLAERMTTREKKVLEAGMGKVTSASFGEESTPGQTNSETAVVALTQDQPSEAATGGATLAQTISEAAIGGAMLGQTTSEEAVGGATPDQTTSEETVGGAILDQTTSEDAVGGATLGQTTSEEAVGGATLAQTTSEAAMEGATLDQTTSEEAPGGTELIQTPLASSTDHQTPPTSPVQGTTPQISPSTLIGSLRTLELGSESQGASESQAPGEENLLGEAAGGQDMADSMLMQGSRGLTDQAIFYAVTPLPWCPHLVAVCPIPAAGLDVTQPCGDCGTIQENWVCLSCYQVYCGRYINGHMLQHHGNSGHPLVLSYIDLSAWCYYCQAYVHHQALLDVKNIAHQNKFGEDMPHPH
Assay: HDAC6 biochemical assay, AMC-labeled peptide substrate
Settings: HDAC6; read-out: HDAC Isoform IC50 (nM) 6
Method: Activity against all zinc-dependent HDACs 1 to 11 was assessed by using an acetylated AMC-labeled peptide substrate. The substrate RHKK(Ac)AMC was used for HDAC1, HDAC2, HDAC3, HDAC6 and HDAC10; the substrate used for HDAC8 was RHK(Ac)K(Ac)AMC. Activity against the class IIa HDACs (HDAC4, 5, 7, 9) and HDAC11 was determined using a class IIa-specific substrate, BOC-Lys(trifluoroacetyl)-AMC (“Trifluoroacetyl Lysine”; see Lahm et al, 2007, PNAS, 104, 17335-17340). […]
Attribute: IC50

{"compound": "CN1CCN(C(=O)c2cnnc(N(Cc3ccc(-c4noc(C(F)(F)F)n4)s3)c3cnccn3)c2)CC1 [Example EC]", "reportedResult": "≤ 500 nM"}
{"compound": "FC(F)(F)c1nc(-c2ccc(CN(c3cnccn3)c3cscn3)s2)no1 [Example T]", "reportedResult": "≤ 10000 nM"}
{"compound": "CS(=O)(=O)c1ncc(N(Cc2ccc(-c3noc(C(F)(F)F)n3)s2)c2cnccn2)cn1 [Example CW]", "reportedResult": "≤ 10000 nM"}
{"compound": "CN(C)C1CN(C(=O)c2cnnc(N(Cc3ccc(-c4noc(C(F)(F)F)n4)s3)c3cnccn3)c2)C1 [Example FX]", "reportedResult": "≤ 500 nM"}
{"compound": "COC1CN(Cc2ccnc(N(Cc3ccc(-c4noc(C(F)(F)F)n4)s3)c3cnccn3)c2)C1 [Example GH]", "reportedResult": "≤ 500 nM"}

Answer with the recorded IC50 for the compound listed here: CNC(=O)c1ccc(N(Cc2ccc(-c3noc(C(F)(F)F)n3)s2)c2cnccn2)nn1 [Example FC]
≤ 500 nM

Answer with the recorded IC50 for the compound listed here: O=C(c1cnnc(N(Cc2ccc(-c3noc(C(F)(F)F)n3)s2)c2cnccn2)c1)N1CC(O)(C(F)(F)F)C1 [Example GD]
≤ 500 nM

Answer with the recorded IC50 for the compound listed here: FC(F)(F)c1nc(-c2ccc(CN(c3cnccn3)c3ncccc3N3CCOCC3)s2)no1 [Example AN]
≤ 1000 nM
